Record form. Attribute: chemical recovery. Fill in for each entry.
test: chemical recovery from spiked human plasma; higher = better extraction; details: pooled human plasma; extraction method: SPE only (HLB 96-well)

**Q:** Can you look up the measured chemical recovery of O=C(O)c1cc(Oc2ccc(Cl)cc2Cl)ccc1[N+](=O)[O-] [Bifenox free acid] for me?
**A:** 30.6%

**Q:** Entry under review: CC(=O)OCC(COC(C)=O)OC(C)=O [Triacetin] . Reported chemical recovery?
**A:** 30.3%

**Q:** Which measured chemical recovery value corresponds to CCCCCCCCn1sccc1=O [2-Octyl-4-isothiazolin-3-one] ?
**A:** 29.4%

----------
Assignment: determine reported chemical recovery for the given compounds.
test: chemical recovery from spiked human plasma; higher = better extraction; settings: pooled human plasma; extraction method: solvent precipitation (ACN + hexane)
Form entry: value (%) — number only.

**Q:** What chemical recovery value was documented for this compound, CCNS(=O)(=O)c1ccccc1C [N-Ethyl-o-toluenesulfonamide] ?
**A:** 68.2

**Q:** # get_value(readout='chemical recovery', item= O=C1Nc2ccc(Cl)cc2C(c2ccccc2Cl)=NC1O (centres undefined) [Lorazepam] )
**A:** 72.1

**Q:** What measured chemical recovery goes with CCN(CC)CC(=O)Nc1c(C)cccc1C [Lidocaine] ?
**A:** 67.9

**Q:** Need chemical recovery of CCN1CCCC1CNC(=O)c1cc(S(=O)(=O)CC)c(N)cc1OC (centres undefined) [Amisulpride] , thanks.
**A:** 70.3

**Q:** Which chemical recovery value belongs to Oc1cc(Cl)ccc1Oc1ccc(Cl)cc1 [Diclosan] ?
**A:** 41.7

**Q:** Entry c1ccc2c(c1)[nH]c1ccncc12 [5-Carboline] : reported chemical recovery = ?
**A:** 72.4

**Q:** Looking for the measured chemical recovery of CNC(=O)c1cc(Cl)cc(C)c1NC(=O)c1cc(Br)nn1-c1ncccc1Cl [Chlorantraniliprole] , can you help?
**A:** 75.5

**Q:** Param item = COCCOCCOCCOCCOC [Tetraglyme] ; retrieve measured chemical recovery.
**A:** 76.1

**Q:** For the compound shown here, Cc1cccc(C)c1NC(=O)CS(=O)(=O)O [Dimethachlor CGA369-873] , give the reported chemical recovery.
**A:** 79.6

----------
test: chemical recovery from spiked human plasma; higher = better extraction; conditions: pooled human plasma; extraction method: PES+SPE (3 d PDMS equilibration then HLB SPE)
Hi, to clarify the labels: rule met covers chemical recovery from 40% upward, rule not met covers anything below 40%.

**Q:** Does Nc1nc(N)nc(N)n1 [Melamine] have a reported chemical recovery of at least 40%?
**A:** rule not met

**Q:** Quick check, chemical recovery >= 40%? CCNc1nc(Cl)nc(NCC)n1 [Simazine]
**A:** rule met

**Q:** Please tell me: is the compound CN(C)C(=O)Nc1ccccc1 [Fenuron] at or over 40% in terms of chemical recovery?
**A:** rule met

**Q:** Confirm if chemical recovery reported for the compound N#Cc1cc(Br)c(O)c(Br)c1 [Bromoxynil] is 40% or above.
**A:** rule met

**Q:** Given COc1nc(C)nc(NC(=O)NS(=O)(=O)c2ccccc2CCC(F)(F)F)n1 [Prosulfuron] , state whether its chemical recovery is at least 40%.
**A:** rule met

**Q:** Does the compound O=S(=O)(O)C(F)(F)C(F)(F)C(F)(F)C(F)(F)F [Perfluorobutanesulfonic-acid] have recorded chemical recovery that is 40% or more?
**A:** rule met

**Q:** Tell me whether chemical recovery is at least 40% here: COc1cc([C@@H]2c3cc4c(cc3[C@@H](O[C@@H]3O[C@@H]5CO[C@@H](C)O[C@H]5[C@H](O)[C@H]3O)[C@H]3COC(=O)[C@H]23)OCO4)cc(OC)c1O [Etoposide]
**A:** rule met

**Q:** Evaluate CC(C)NCC(O)COc1cccc2ccccc12 (centres undefined) [Propranolol] : chemical recovery at minimum 40%?
**A:** rule not met

**Q:** Given CCC(C(N)=O)(C(N)=O)c1ccccc1 [Phenylethylmalonamide] , state whether its chemical recovery is at least 40%.
**A:** rule met

**Q:** Confirm if chemical recovery reported for the compound Cc1c(N(C)C)c(=O)n(-c2ccccc2)n1C [Dimethylaminophenazone] is 40% or above.
**A:** rule not met

**Q:** Is reported chemical recovery greater than or equal to 40% here: COCCOCCOCCO [2-(2-(2-Methoxyethoxy)ethoxy)ethanol]
**A:** rule not met

**Q:** For this compound, is measured chemical recovery 40% or higher? Oc1ccc(Cl)cc1Cc1cc(Cl)ccc1O [Dichlorophen]
**A:** rule met

**Q:** Record CCc1ccc(CCOc2ccc(CC3SC(=O)NC3=O)cc2)nc1 (centres undefined) [Pioglitazone] ; criterion: chemical recovery no lower than 40%. Met?
**A:** rule met

**Q:** Quick check: does Clc1cc(Cl)c(-c2ccc(Cl)c(Cl)c2Cl)cc1Cl [PCB138] have chemical recovery greater than or equal to 40%?
**A:** rule met

**Q:** Threshold query (chemical recovery >= 40%) on CNC(=O)c1ccccc1 [N-Methylbenzamide]
**A:** rule not met

**Q:** Please check the record Cc1cccc(C)c1NC(=O)CS(=O)(=O)O and state if its chemical recovery is at or above 40%.
**A:** rule not met

**Q:** Determine whether measured chemical recovery meets or exceeds 40% for O=C(O)COCCN1CCN(C(c2ccccc2)c2ccc(Cl)cc2)CC1 (centres undefined) [Cetirizine]
**A:** rule met

**Q:** Does the reported chemical recovery for O=S(=O)(O)C(F)(F)C(F)(F)C(F)(F)C(F)(F)C(F)(F)C(F)(F)C(F)(F)F [Perfluoroheptanesulfonic-acid] fall at or above the 40% mark?
**A:** rule not met

**Q:** Tell me whether chemical recovery is at least 40% here: CC(C)(c1ccc(O)c(-c2ccccc2)c1)c1ccc(O)c(-c2ccccc2)c1 [Bisphenol-PH]
**A:** rule met

**Q:** Check if chemical recovery >= 40% (inclusive). Item: C#CC(C)(C)NC(=O)c1cc(Cl)cc(Cl)c1 [Propyzamide]
**A:** rule met

**Q:** Does chemical recovery meet or surpass 40% for CC(NC(C)(C)C)C(=O)c1cccc(Cl)c1 (centres undefined) [Bupropion] ?
**A:** rule not met

**Q:** Check the entry CC(C)N1C(=O)c2cc(O)ccc2NS1(=O)=O [6-Hydroxybentazone] : does chemical recovery equal or exceed 40%?
**A:** rule not met

**Q:** Given Cc1cc(=O)nc(C(C)C)[nH]1 [2-Isopropyl-6-methyl-pyrimidin-4-ol] , state whether its chemical recovery is at least 40%.
**A:** rule met

**Q:** Check if chemical recovery >= 40% (inclusive). Item: CNC1(c2ccccc2Cl)CCCCC1=O (centres undefined) [Ketamine]
**A:** rule not met

**Q:** Determine whether this compound has chemical recovery no lower than 40%: NC1CCCCC1 [Cyclohexylamine]
**A:** rule not met

**Q:** Has O=C(O)C(F)(F)C(F)(F)C(F)(F)C(F)(F)F [Perfluoropentanoic-acid] a recorded chemical recovery greater than or equal to 40%?
**A:** rule not met

**Q:** Check the entry CCCc1nc2c(C)cc(-c3nc4ccccc4n3C)cc2n1Cc1ccc(-c2ccccc2C(=O)O)cc1 [Telmisartan] : does chemical recovery equal or exceed 40%?
**A:** rule met

**Q:** Is reported chemical recovery greater than or equal to 40% here: O=S(=O)(O)c1ccccc1 [Benzenesulfonic acid]
**A:** rule not met
